Molecular target: Rma (Salmonella typhimurium, UniProt H9L484)
Construct: fused on or other part: 6-histidine tag
Sequence (H9L484 1-113): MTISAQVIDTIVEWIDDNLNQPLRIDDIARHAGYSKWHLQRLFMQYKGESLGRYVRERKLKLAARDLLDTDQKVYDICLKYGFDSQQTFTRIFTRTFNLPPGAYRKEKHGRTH
Assay: Chemiluminescence-based Rma-DNA binding assay
Conditions: Table 10
experimental endpoint: EC50

(Q) Provide EC50 value for the following compound: O=C(Nc1ccc(-c2nc3ccc([N+](=O)[O-])cc3n2O)cc1)c1ccc(F)cc1 [C]
(A) 1 to 4.9 µM

(Q) Provide EC50 value for the following compound: O=[N+]([O-])c1ccc2nc(-c3ccc(-c4ccccc4)o3)n(O)c2c1 [BQ]
(A) > 5 µM

(Q) Provide EC50 value for the following compound: CN(C)c1ccc(C(=O)Nc2ccc(-c3nc4ccc([N+](=O)[O-])cc4n3O)cc2)cc1 [AH]
(A) 1 to 4.9 µM

Origin of the recorded values: patent US20090131481A1
